System: NCI-H322M lung
Test: NCI-60 one-dose screen, 48 h
Settings: 10 µM unless noted
Compounds without any hit were thinned out: in the full panel of roughly 83,000, 20% have a hit. Calls of active or inactive are those of the source. How the source made its calls: active means growth percent below 10; inactive means the rest.
Select the correct class. Options are True (active), False (inactive) and nothing else.

{"compound": "CCOP(=O)(OCC)OC[C@]12CCC(C)(C)C=C1[C@H]1CC[C@@H]3[C@@]4(C)CC[C@H](OP(=O)(OCC)OCC)C(C)(C)[C@@H]4CC[C@@]3(C)[C@]1(C)CC2", "qualitative label": "True"}
{"compound": "Cc1ccc2sc3c(c2c1)OC(N)=C(C#N)C3c1ccc(Cl)cc1 (centres undefined)", "qualitative label": "False"}
{"compound": "NC(N)=Nc1ccc(Oc2cccc(Nc3ccc(Cl)c(C(F)(F)F)c3)c2)cn1", "qualitative label": "True"}

Hi, sorry to bother you, what did the test record for NC(N)=Nc1ccc(Oc2cccc(Nc3ccc(Cl)c(C(F)(F)F)c3)c2)cc1 ? False

I'd appreciate the recorded outcome for COc1ccc(-c2nc3cc(Cl)c(Cl)cc3n2CC(=O)N=Nc2c(O)[nH]c3ccc(OC)cc23)cc1 from this test. False

Recorded test call requested for O=C1Nc2ccccc2/C1=C/c1ccc(CO)n1-c1ccc(Cl)cc1 False

Entry O=C(Nc1ccc(Br)cc1)Nc1nc2ccc([N+](=O)[O-])cc2s1 : call = ? True

Fill in: this test's call for CC1(C)[C@@H](O)CC[C@]2(C)[C@H]3CC[C@@H]4[C@H]5[C@H](C(=O)/C=C\c6ccncc6)CC[C@]5(O)CC[C@@]4(C)[C@]3(C)CC[C@@H]12 is ___ False

Dear all, I need the recorded test outcome for CC(=O)N(C)C1CCc2c(sc(NC(=O)c3ccc(C(C)(C)C)cc3)c2C(N)=O)C1 (centres undefined) , thank you. False
